A collection of molecules and their measured EC50
System: L929
assay-comment: Anti-necroptosis activity against TNFalpha/z-VAD-fmk-induced mouse L929 cell necroptosis model assessed as cell viability pretreated with compound for 1 hr followed by treated with TZ for 6 hrs
Type: functional, cell-based
experimental-readout: EC50 (µM)

[
  {
    "compound-string": "CC(C)(C)NC(=O)c1ccc(-c2cc3cccnc3[nH]2)cc1",
    "reading-qualifier": "=",
    "reported-result": 0.17
  },
  {
    "compound-string": "CNC(=O)c1ccc(-c2cc3cccnc3[nH]2)cc1",
    "reading-qualifier": "=",
    "reported-result": 0.095
  },
  {
    "compound-string": "Oc1ccc(-c2cc3cccnc3[nH]2)cc1Cl",
    "reading-qualifier": "=",
    "reported-result": 5.14
  },
  {
    "compound-string": "Oc1ccc(-c2cnc3[nH]ccc3c2)cc1",
    "reading-qualifier": "=",
    "reported-result": 1.47
  },
  {
    "compound-string": "NC(=O)c1ccc(-c2cc3cccnc3[nH]2)cc1",
    "reading-qualifier": "=",
    "reported-result": 0.09
  },
  {
    "compound-string": "N#Cc1ccc(-c2cnc3[nH]ccc3c2)cc1",
    "reading-qualifier": "=",
    "reported-result": 1.85
  },
  {
    "compound-string": "Oc1cccc(-c2cnc3[nH]ccc3c2)c1",
    "reading-qualifier": ">",
    "reported-result": 10
  },
  {
    "compound-string": "Oc1ccccc1-c1cnc2[nH]ccc2c1",
    "reading-qualifier": ">",
    "reported-result": 10
  },
  {
    "compound-string": "CCNC(=O)c1ccc(-c2cc3cccnc3[nH]2)cc1",
    "reading-qualifier": "=",
    "reported-result": 0.24
  },
  {
    "compound-string": "OCCc1ccc(-c2cc3cccnc3[nH]2)cc1",
    "reading-qualifier": "=",
    "reported-result": 0.3
  },
  {
    "compound-string": "CCCNC(=O)c1ccc(-c2cc3cccnc3[nH]2)cc1",
    "reading-qualifier": "=",
    "reported-result": 0.81
  },
  {
    "compound-string": "NC(=O)c1ccc(-c2cnc3[nH]ccc3c2)cc1",
    "reading-qualifier": "=",
    "reported-result": 0.71
  },
  {
    "compound-string": "c1ccc(Oc2ccccc2-c2cnc3[nH]ccc3c2)cc1",
    "reading-qualifier": ">",
    "reported-result": 10
  },
  {
    "compound-string": "O=C(c1ccc(-c2cc3cccnc3[nH]2)cc1)N1CCNCC1",
    "reading-qualifier": "=",
    "reported-result": 0.09
  },
  {
    "compound-string": "OCc1ccc(-c2cc3cccnc3[nH]2)cc1",
    "reading-qualifier": "=",
    "reported-result": 0.14
  },
  {
    "compound-string": "COc1ccc(-c2cc3ccc[nH]c-3n2)cc1",
    "reading-qualifier": "=",
    "reported-result": 0.15
  },
  {
    "compound-string": "Oc1ccc(-c2c[nH]c3ncccc23)cc1",
    "reading-qualifier": ">",
    "reported-result": 10
  },
  {
    "compound-string": "CC(C)(C)Oc1ccc(-c2cc3cccnc3[nH]2)cc1",
    "reading-qualifier": "=",
    "reported-result": 0.17
  },
  {
    "compound-string": "CC(C)N(C(=O)c1ccc(-c2cc3cccnc3[nH]2)cc1)C(C)C",
    "reading-qualifier": "=",
    "reported-result": 0.19
  },
  {
    "compound-string": "Oc1ccccc1-c1cc2cccnc2[nH]1",
    "reading-qualifier": "=",
    "reported-result": 1.14
  },
  {
    "compound-string": "O=C(c1ccc(-c2cc3cccnc3[nH]2)cc1)N1CCOCC1",
    "reading-qualifier": "=",
    "reported-result": 0.056
  },
  {
    "compound-string": "CN1CCN(C(=O)c2ccc(-c3cc4cccnc4[nH]3)cc2)CC1",
    "reading-qualifier": "=",
    "reported-result": 0.06
  },
  {
    "compound-string": "c1cnc2[nH]c(-c3ccc4ncsc4c3)cc2c1",
    "reading-qualifier": "=",
    "reported-result": 0.34
  },
  {
    "compound-string": "CC(C)(C)Oc1ccc(-c2cnc3[nH]ccc3c2)cc1",
    "reading-qualifier": ">",
    "reported-result": 10
  },
  {
    "compound-string": "O/N=C/c1ccc(-c2cc3cccnc3[nH]2)cc1",
    "reading-qualifier": "=",
    "reported-result": 0.67
  },
  {
    "compound-string": "O=C(NC1CC1)c1ccc(-c2cc3cccnc3[nH]2)cc1",
    "reading-qualifier": "=",
    "reported-result": 0.19
  },
  {
    "compound-string": "Oc1ccc(-c2ccc3cc[nH]c3n2)cc1",
    "reading-qualifier": ">",
    "reported-result": 10
  },
  {
    "compound-string": "Oc1ccc2ccc(-c3cc4cccnc4[nH]3)cc2c1",
    "reading-qualifier": "=",
    "reported-result": 1.42
  },
  {
    "compound-string": "Oc1ccc(-c2ccnc3[nH]ccc23)cc1",
    "reading-qualifier": ">",
    "reported-result": 10
  },
  {
    "compound-string": "c1cnc2[nH]c(-c3ccc4c(c3)CCCO4)cc2c1",
    "reading-qualifier": "=",
    "reported-result": 0.89
  },
  {
    "compound-string": "Nc1ccc(-c2cc3cccnc3[nH]2)cc1",
    "reading-qualifier": "=",
    "reported-result": 0.27
  },
  {
    "compound-string": "Oc1cccc(-c2cc3cccnc3[nH]2)c1",
    "reading-qualifier": "=",
    "reported-result": 1.23
  },
  {
    "compound-string": "Oc1ccc(-c2cnc3[nH]cnc3c2)cc1",
    "reading-qualifier": ">",
    "reported-result": 10
  },
  {
    "compound-string": "Oc1ccc(-c2cnc3[nH]ccc3n2)cc1",
    "reading-qualifier": "=",
    "reported-result": 5.1
  },
  {
    "compound-string": "O=C(c1ccc(-c2cc3cccnc3[nH]2)cc1)N1CCCC1",
    "reading-qualifier": "=",
    "reported-result": 0.26
  },
  {
    "compound-string": "Oc1ccc(-c2cc3cccnc3[nH]2)cc1F",
    "reading-qualifier": "=",
    "reported-result": 1.18
  },
  {
    "compound-string": "CC(C)NC(=O)c1ccc(-c2cc3cccnc3[nH]2)cc1",
    "reading-qualifier": "=",
    "reported-result": 0.81
  },
  {
    "compound-string": "c1ccc(Oc2ccc(-c3cc4cccnc4[nH]3)cc2)cc1",
    "reading-qualifier": "=",
    "reported-result": 7.54
  },
  {
    "compound-string": "Oc1ccc(-c2cnc3nccnc3c2)cc1",
    "reading-qualifier": ">",
    "reported-result": 10
  },
  {
    "compound-string": "O=C(c1ccc(-c2cc3cccnc3[nH]2)cc1)N1CCCCC1",
    "reading-qualifier": "=",
    "reported-result": 0.13
  },
  {
    "compound-string": "Oc1ccc(-c2cc3cccnc3[nH]2)cc1",
    "reading-qualifier": "=",
    "reported-result": 1.31
  },
  {
    "compound-string": "Oc1ccc(-c2ccc(-c3cc4cccnc4[nH]3)cc2)cc1",
    "reading-qualifier": "=",
    "reported-result": 0.35
  },
  {
    "compound-string": "O/N=C/c1ccc(-c2cnc3[nH]ccc3c2)cc1",
    "reading-qualifier": "=",
    "reported-result": 4.27
  },
  {
    "compound-string": "COc1cc(-c2cc3cccnc3[nH]2)ccc1O",
    "reading-qualifier": "=",
    "reported-result": 0.14
  }
]

====

A collection of compounds and their measured pIC50
test-system: Receptor-interacting serine/threonine-protein kinase 1 (Homo sapiens)
Sequence (Q13546 whole entry): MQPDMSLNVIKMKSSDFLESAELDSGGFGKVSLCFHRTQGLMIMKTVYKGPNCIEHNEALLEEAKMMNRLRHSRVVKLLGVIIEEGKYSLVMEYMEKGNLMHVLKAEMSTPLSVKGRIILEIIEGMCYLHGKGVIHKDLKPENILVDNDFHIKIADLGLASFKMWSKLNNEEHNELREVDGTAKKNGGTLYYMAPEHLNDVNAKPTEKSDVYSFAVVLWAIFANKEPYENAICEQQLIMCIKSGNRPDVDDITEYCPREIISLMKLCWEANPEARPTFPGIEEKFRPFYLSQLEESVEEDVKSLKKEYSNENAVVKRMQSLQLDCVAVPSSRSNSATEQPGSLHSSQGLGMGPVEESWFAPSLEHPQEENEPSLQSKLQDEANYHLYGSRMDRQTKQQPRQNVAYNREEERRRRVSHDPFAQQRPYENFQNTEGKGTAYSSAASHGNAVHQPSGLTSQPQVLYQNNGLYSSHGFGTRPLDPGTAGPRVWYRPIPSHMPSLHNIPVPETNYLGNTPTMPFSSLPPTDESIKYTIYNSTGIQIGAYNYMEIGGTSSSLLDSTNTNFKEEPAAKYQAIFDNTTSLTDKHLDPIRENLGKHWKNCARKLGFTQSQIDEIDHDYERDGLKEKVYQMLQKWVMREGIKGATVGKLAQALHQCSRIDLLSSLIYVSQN
pIC50: −log10 of the molar value.

[
  {
    "compound-string": "Nc1ccc(-c2cc3cccnc3[nH]2)cc1",
    "pIC50": 6.62
  },
  {
    "compound-string": "c1cnc2[nH]c(-c3ccc4c(c3)CCCO4)cc2c1",
    "pIC50": 5.93
  },
  {
    "compound-string": "O=C(c1ccc(-c2cc3cccnc3[nH]2)cc1)N1CCOCC1",
    "pIC50": 7.06
  },
  {
    "compound-string": "O=C(c1ccc(-c2cc3cccnc3[nH]2)cc1)N1CCCCC1",
    "pIC50": 6.92
  },
  {
    "compound-string": "CNC(=O)c1ccc(-c2cc3cccnc3[nH]2)cc1",
    "pIC50": 7.03
  },
  {
    "compound-string": "CC(C)(C)Oc1ccc(-c2cc3cccnc3[nH]2)cc1",
    "pIC50": 6.66
  },
  {
    "compound-string": "O/N=C/c1ccc(-c2cnc3[nH]ccc3c2)cc1",
    "pIC50": 5.44
  },
  {
    "compound-string": "CCCNC(=O)c1ccc(-c2cc3cccnc3[nH]2)cc1",
    "pIC50": 6.20
  },
  {
    "compound-string": "Oc1ccc(-c2cc3cccnc3[nH]2)cc1Cl",
    "pIC50": 5.41
  },
  {
    "compound-string": "Oc1ccc(-c2ccc(-c3cc4cccnc4[nH]3)cc2)cc1",
    "pIC50": 6.64
  },
  {
    "compound-string": "Oc1ccccc1-c1cc2cccnc2[nH]1",
    "pIC50": 6.02
  },
  {
    "compound-string": "N#Cc1ccc(-c2cnc3[nH]ccc3c2)cc1",
    "pIC50": 5.93
  },
  {
    "compound-string": "CC(C)(C)NC(=O)c1ccc(-c2cc3cccnc3[nH]2)cc1",
    "pIC50": 7.05
  },
  {
    "compound-string": "OCCc1ccc(-c2cc3cccnc3[nH]2)cc1",
    "pIC50": 6.64
  },
  {
    "compound-string": "CN1CCN(C(=O)c2ccc(-c3cc4cccnc4[nH]3)cc2)CC1",
    "pIC50": 7.00
  },
  {
    "compound-string": "NC(=O)c1ccc(-c2cc3cccnc3[nH]2)cc1",
    "pIC50": 6.96
  }
]
